Overview of recorded inhibition at 25 µM for various compounds
System: HCT116 cells
test.details: Effect of inhibiting cancer cell proliferation (MTT) in HCT116 cells
Type: cell-based, human
recorded.conditions: Homo sapiens, HCT-116, 48 h, 25 μM, read-out: Cell growth inhibition (%) at 25 μM
Counter-ions that a name gives are not always drawn.
Dear colleague, please return just the value in %, with no unit written.

# lookup: inhibition at 25 µM of CC1CCCCN1C(=N)NC(=N)Nc1ccc(F)c(C(F)(F)F)c1.Cl (stereo not drawn) [Example 78, hydrochloride]
100

// inhibition at 25 µM lookup, key: CC1CCCN(C(=N)NC(=N)Nc2cccc(C(F)(F)F)c2)C1.Cl (stereo not drawn) [Example 88, hydrochloride]
100

Look at this compound and give its reported inhibition at 25 µM. CC1CCCN(C(=N)NC(=N)Nc2ccc(Cl)cc2)C1.Cl (stereo not drawn) [Example 87, hydrochloride]
100

If you can, please state the reported inhibition at 25 µM value of CC1CCCC(C)N1C(=N)NC(=N)Nc1ccc(Cl)c(C(F)(F)F)c1.Cl (stereo not drawn) [Example 94, hydrochloride] .
100

# inhibition at 25 µM lookup, item CC1CCCN(C(=N)NC(=N)NCc2ccc(C(F)(F)F)cc2)C1.Cl (stereo not drawn) [Example 86, hydrochloride]
49

What value of measured inhibition at 25 µM is listed for CC1CCCN(C(=N)NC(=N)NCc2cccc(C(F)(F)F)c2)C1.Cl (stereo not drawn) [Example 65, hydrochloride] ?
66.7

For CC1CCCC(C)N1C(=N)NC(=N)Nc1ccc(OC(F)(F)F)cc1.Cl (stereo not drawn) [Example 89, hydrochloride] , what is its reported inhibition at 25 µM?
100

So what does the record say about inhibition at 25 µM for CC1CCCC(C)N1C(=N)NC(=N)Nc1ccc(F)cc1.Cl (stereo not drawn) [Example 98, hydrochloride] ?
28.2

Endpoint output: inhibition at 25 µM of CC1CCCC(C)N1C(=N)NC(=N)Nc1ccc(Br)cc1 (stereo not drawn) [Example 97, hydrochloride] . Value?
100
